Numbers sourced from patent US20100216779A1.

The compounds listed here are annotated with their IC50.
tested_target: human IGF-1R (NIH-3T3 cells over expressing human IGF-1R) (Homo sapiens, UniProt P08069)
Sequence (P08069 31-1367): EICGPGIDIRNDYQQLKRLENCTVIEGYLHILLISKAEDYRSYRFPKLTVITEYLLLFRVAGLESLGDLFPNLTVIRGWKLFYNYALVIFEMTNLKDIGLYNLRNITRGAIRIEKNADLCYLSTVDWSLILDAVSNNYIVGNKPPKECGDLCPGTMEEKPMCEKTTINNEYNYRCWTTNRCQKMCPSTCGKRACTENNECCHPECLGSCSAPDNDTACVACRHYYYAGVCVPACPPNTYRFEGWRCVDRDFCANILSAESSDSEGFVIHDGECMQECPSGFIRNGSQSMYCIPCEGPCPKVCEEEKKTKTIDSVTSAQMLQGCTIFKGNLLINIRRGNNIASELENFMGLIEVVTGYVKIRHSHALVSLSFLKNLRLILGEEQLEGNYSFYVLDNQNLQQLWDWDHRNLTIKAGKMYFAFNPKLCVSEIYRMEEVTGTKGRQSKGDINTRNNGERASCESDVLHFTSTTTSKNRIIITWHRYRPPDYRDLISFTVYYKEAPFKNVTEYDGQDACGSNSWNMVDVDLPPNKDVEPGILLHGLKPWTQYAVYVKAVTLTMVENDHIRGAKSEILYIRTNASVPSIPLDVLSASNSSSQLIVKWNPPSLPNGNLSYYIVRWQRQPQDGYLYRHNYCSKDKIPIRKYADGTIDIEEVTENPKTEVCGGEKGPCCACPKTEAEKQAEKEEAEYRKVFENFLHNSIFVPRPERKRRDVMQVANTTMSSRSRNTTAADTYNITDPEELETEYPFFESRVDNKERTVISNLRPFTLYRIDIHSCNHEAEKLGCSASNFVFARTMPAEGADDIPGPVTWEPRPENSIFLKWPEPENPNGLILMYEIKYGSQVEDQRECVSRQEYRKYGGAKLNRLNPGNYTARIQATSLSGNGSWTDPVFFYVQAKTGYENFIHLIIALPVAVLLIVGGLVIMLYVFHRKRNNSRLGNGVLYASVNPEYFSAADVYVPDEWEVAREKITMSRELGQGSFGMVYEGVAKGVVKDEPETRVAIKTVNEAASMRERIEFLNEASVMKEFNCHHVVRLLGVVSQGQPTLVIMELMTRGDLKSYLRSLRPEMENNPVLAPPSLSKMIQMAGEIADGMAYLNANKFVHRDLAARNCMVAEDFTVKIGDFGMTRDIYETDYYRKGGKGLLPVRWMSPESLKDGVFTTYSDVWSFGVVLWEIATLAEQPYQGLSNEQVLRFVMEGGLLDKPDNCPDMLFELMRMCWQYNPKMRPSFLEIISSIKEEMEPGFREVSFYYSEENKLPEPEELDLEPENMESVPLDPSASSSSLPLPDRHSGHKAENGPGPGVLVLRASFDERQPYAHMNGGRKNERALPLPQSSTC
method_notes: IGF-1R cellular autophosphorylation (DELFIA)
particulars: IGF-1 stimulated

>  <compound>
COc1cc(N2CCC[C@@H](O)C2)ccc1Nc1nccc(-c2c(-c3cccc(C(=O)Nc4c(F)cccc4F)c3)nc3ccccn23)n1 [Example 170]

>  <IC50>
< 100 nM

$$$$
>  <compound>
CCOc1cc(N2CCC(N3CCN(CC(F)F)CC3)CC2)ccc1Nc1nccc(-c2c(-c3cccc(C(=O)Nc4c(F)cccc4F)c3)nc3ccccn23)n1 [Example 117]

>  <IC50>
< 100 nM

$$$$
>  <compound>
CCCN1CCC(c2cc(OC)c(Nc3nccc(-c4c(-c5ccc(OCC)c(C(=O)Nc6c(F)cccc6F)c5)nc5ccccn45)n3)cc2C)CC1 [Example 158]

>  <IC50>
< 100 nM

$$$$
>  <compound>
COc1cc(N2CCC(N3CCN(CCF)CC3)CC2)ccc1Nc1nccc(-c2c(-c3cccc(C(=O)Nc4c(F)cccc4F)c3)nc3cc(C(F)(F)F)ccn23)n1 [Example 189]

>  <IC50>
100 to 500 nM

$$$$
>  <compound>
COc1cc(N2CCC(N3CCN(CCS(C)(=O)=O)CC3)CC2)c(Cl)cc1Nc1nccc(-c2c(-c3cccc(C(=O)Nc4c(F)cccc4F)c3)nc3ccccn23)n1 [Example 114]

>  <IC50>
< 100 nM

$$$$
>  <compound>
CCCc1cc(C2CCN(CCS(C)(=O)=O)CC2)ccc1Nc1nccc(-c2c(-c3ccc(OC)c(C(=O)Nc4c(F)cccc4F)c3)nc3ccccn23)n1 [Example 167]

>  <IC50>
< 100 nM

$$$$
>  <compound>
CCOc1ccc(-c2nc3ccccn3c2-c2ccnc(Nc3cc(C)c(N4CCCN(CCS(C)(=O)=O)CC4)cc3OC)n2)cc1C(=O)Nc1c(F)cccc1F [Example 203]

>  <IC50>
< 100 nM

$$$$
>  <compound>
COc1cc(N2CCC(N3CCCCC3)CC2)c(F)cc1Nc1nccc(-c2c(-c3ccc(OC)c(C(=O)Nc4c(F)cccc4F)c3)nc3ccccn23)n1 [Example 107]

>  <IC50>
< 100 nM

$$$$
>  <compound>
CCOc1ccc(-c2nc3ccccn3c2-c2ccnc(Nc3cc(CC)c(N4CCC(CCS(C)(=O)=O)CC4)cc3OC)n2)cc1C(=O)Nc1c(F)cccc1F [Example 209]

>  <IC50>
< 100 nM

$$$$
>  <compound>
Cn1cc(-c2cccc(Nc3nccc(-c4c(-c5cccc(C(=O)Nc6c(F)cccc6F)c5)nc5ccccn45)n3)c2)cn1 [Example 11]

>  <IC50>
100 to 500 nM

$$$$
>  <compound>
CCOc1cc(N2CCC(N3CCN(CCF)CC3)CC2)ccc1Nc1nccc(-c2c(-c3cccc(C(=O)Nc4c(F)cccc4F)c3)nc3ccccn23)n1 [Example 116]

>  <IC50>
< 100 nM

$$$$
>  <compound>
COc1cc(CCCN2CCN(C)CC2)ccc1Nc1nccc(-c2c(-c3ccc(OC)c(C(=O)Nc4c(F)cccc4F)c3)nc3ccccn23)n1 [Example 142]

>  <IC50>
< 100 nM

$$$$
>  <compound>
COc1cc(N2CCC(N3CCN(C(C)=O)CC3)CC2)ccc1Nc1nccc(-c2c(-c3cccc(C(=O)Nc4c(F)cccc4F)c3)nc3ccccn23)n1 [Example 70]

>  <IC50>
< 100 nM

$$$$
>  <compound>
CN(C)CCOc1cccc(Nc2nccc(-c3c(-c4cccc(C(=O)Nc5ccc(F)cc5F)c4)nc4ccccn34)n2)c1 [Example 13]

>  <IC50>
< 100 nM

$$$$
>  <compound>
COc1cc([C@H]2CC[C@H](N3CCN(CCS(C)(=O)=O)CC3)CC2)ccc1Nc1nccc(-c2c(-c3cccc(C(=O)Nc4c(F)cccc4F)c3)nc3ccccn23)n1 [Example 94]

>  <IC50>
< 100 nM

$$$$
>  <compound>
CCOc1cc(CCN2CCN(C)CC2)ccc1Nc1nccc(-c2c(-c3ccc(OC)c(C(=O)Nc4c(F)cccc4F)c3)nc3ccccn23)n1 [Example 146]

>  <IC50>
> 500 nM

$$$$
>  <compound>
COc1cc(C2CCN(CC(C)C)CC2)ccc1Nc1nccc(-c2c(-c3ccc(OC)c(C(=O)Nc4c(F)cccc4F)c3)nc3ccccn23)n1 [Example 160]

>  <IC50>
< 100 nM

$$$$
>  <compound>
COc1c(Nc2nccc(-c3c(-c4cccc(C(=O)Nc5c(F)cccc5F)c4)nc4ccccn34)n2)ccc(N2CCC(N3CCCCC3)CC2)c1C [Example 54]

>  <IC50>
> 500 nM

$$$$
>  <compound>
CCCN1CCC(c2cc(OC)c(Nc3nccc(-c4c(-c5ccc(OC)c(C(=O)Nc6c(F)cccc6F)c5)nc5ccccn45)n3)cc2C)CC1 [Example 157]

>  <IC50>
< 100 nM

$$$$
>  <compound>
COc1cc(N2CCC(CCS(C)(=O)=O)CC2)c(C)cc1Nc1nccc(-c2c(-c3ccc(OC(C)C)c(C(=O)Nc4c(F)cccc4F)c3)nc3ccccn23)n1 [Example 214]

>  <IC50>
< 100 nM

$$$$
>  <compound>
CCOc1ccc(-c2nc3ccccn3c2-c2ccnc(Nc3ccc(N4CCC(CCS(C)(=O)=O)CC4)cc3OC)n2)cc1C(=O)Nc1c(F)cccc1F [Example 200]

>  <IC50>
< 100 nM

$$$$
>  <compound>
COc1cc(N2CCN(CCS(C)(=O)=O)CC2)c(C)cc1Nc1nccc(-c2c(-c3ccc(OC)c(C(=O)Nc4c(F)cccc4F)c3)nc3ccccn23)n1 [Example 149]

>  <IC50>
< 100 nM

$$$$
>  <compound>
COc1cc(N2CCC(CCS(C)(=O)=O)CC2)c(C)cc1Nc1nccc(-c2c(-c3cccc(C(=O)Nc4c(F)cccc4F)c3)nc3ccccn23)n1 [Example 231]

>  <IC50>
< 100 nM

$$$$
